Molecular target: Lyn SH2 domain (Homo sapiens, UniProt P07948)
Construct: The human SH2 domains from Fyn (142–248), Lyn (121–228); His6-SUMO (N, cleaved yes)
Sequence (P07948 121-228): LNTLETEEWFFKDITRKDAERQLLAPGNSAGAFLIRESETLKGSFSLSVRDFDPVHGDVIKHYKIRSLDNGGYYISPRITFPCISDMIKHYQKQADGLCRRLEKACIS
Test: competitive fluorescence polarization, Lyn SH2 domain
Settings: Table S3, unpaired validation; competition fluorescence polarization; probe FITC-Ahx-GDG-pY-EEISPLLL-NH2 30 nM; [SH2] 106 nM; mean
Non-standard residues stand in square brackets, D forms with d. Residues, ends and D or L forms follow the SMILES beside them. pY = N[C@@H](Cc1ccc(OP(=O)(O)O)cc1)C(=O)O
# pKd annotations
Lab note: report pKd as minus log10 of the concentration in molar units, number only.

Solved cases below.
CC(=O)N[C@@H](CCC(N)=O)C(=O)NCC(=O)N[C@@H](CCCNC(=N)N)C(=O)N[C@@H](CCCNC(=N)N)C(=O)N[C@@H](CCC(=O)O)C(=O)N[C@@H](CCC(=O)O)C(=O)N[C@@H](Cc1ccc(OP(=O)(O)O)cc1)C(=O)N[C@@H](CC(=O)O)C(=O)N[C@H](C(=O)N[C@@H](CC(C)C)C(=O)N[C@@H](CC(=O)O)C(=O)N[C@@H](CCCCN)C(=O)NCC(N)=O)C(C)C [CD3Z pY83] (Ac-QGRREE[pY]DVLDKG-NH2); 5.53
CC[C@H](C)[C@H](NC(=O)[C@H](CCC(=O)O)NC(=O)[C@H](CO)NC(=O)[C@H](Cc1ccc(OP(=O)(O)O)cc1)NC(=O)[C@H](CCC(=O)O)NC(=O)[C@@H](NC(=O)[C@@H](NC(=O)[C@H](CO)NC(=O)[C@@H]1CCCN1C(=O)[C@H](CCC(N)=O)NC(C)=O)[C@@H](C)O)[C@@H](C)O)C(=O)N[C@@H](CCCCN)C(=O)N[C@H](C(=O)NCC(N)=O)[C@@H](C)O [SIGLEC5 pY544] (Ac-QPSTTE[pY]SEIKTG-NH2); 6.44
CC(=O)N[C@@H](CCC(N)=O)C(=O)N[C@@H](Cc1c[nH]cn1)C(=O)N[C@@H](CCCCN)C(=O)N[C@@H](CCC(=O)O)C(=O)N[C@@H](CC(=O)O)C(=O)N[C@H](C(=O)N[C@@H](Cc1ccc(OP(=O)(O)O)cc1)C(=O)N[C@@H](CCC(=O)O)C(=O)N[C@@H](CC(N)=O)C(=O)N[C@@H](CC(C)C)C(=O)N[C@@H](Cc1c[nH]cn1)C(=O)N[C@H](C(=O)NCC(N)=O)[C@@H](C)O)C(C)C [PTPN6 pY564] (Ac-QHKEDV[pY]ENLHTG-NH2); 6.03
CC(=O)N[C@@H](CCC(N)=O)C(=O)N[C@@H](CCC(=O)O)C(=O)N[C@@H](Cc1c[nH]c2ccccc12)C(=O)N[C@@H](CCCNC(=N)N)C(=O)N[C@@H](CO)C(=O)N[C@@H](CCC(N)=O)C(=O)N[C@@H](Cc1ccc(OP(=O)(O)O)cc1)C(=O)N[C@@H](CCC(=O)O)C(=O)N[C@@H](C)C(=O)N[C@@H](CC(C)C)C(=O)N[C@@H](CCCCN)C(=O)N[C@@H](CCC(=O)O)C(=O)NCC(N)=O [TRAF3IP3 pY322] (Ac-QEWRSQ[pY]EALKEG-NH2); 5.40
CC[C@H](C)[C@H](NC(=O)[C@H](CC(N)=O)NC(=O)[C@H](CCCCN)NC(=O)[C@H](Cc1ccc(OP(=O)(O)O)cc1)NC(=O)[C@H](CC(=O)O)NC(=O)[C@@H](NC(=O)CNC(=O)CNC(=O)[C@H](CCC(=O)O)NC(=O)[C@H](CCC(N)=O)NC(C)=O)C(C)C)C(=O)N[C@@H](Cc1c[nH]cn1)C(=O)N[C@@H](CC(C)C)C(=O)NCC(N)=O [CSF1R pY699] (Ac-QEGGVD[pY]KNIHLG-NH2); 4.64

Enquiry: Reported pKd, molecule CC[C@H](C)[C@H](NC(=O)[C@H](CC(=O)O)NC(=O)[C@H](CC(=O)O)NC(=O)[C@H](Cc1ccc(OP(=O)(O)O)cc1)NC(=O)[C@@H](NC(=O)[C@H](CCC(=O)O)NC(=O)CNC(=O)[C@H](CC(=O)O)NC(=O)[C@H](CC(N)=O)NC(=O)[C@H](CCC(N)=O)NC(C)=O)[C@@H](C)CC)C(=O)N[C@@H](C)C(=O)N[C@@H](CC(=O)O)C(=O)NCC(N)=O [SLAP-130 pY771] (Ac-QNDGEI[pY]DDIADG-NH2) : ____
Return: 7.01

Enquiry: Can you handle CC[C@H](C)[C@H](NC(=O)[C@H](CCC(=O)O)NC(=O)[C@H](CC(=O)O)NC(=O)[C@H](Cc1ccc(OP(=O)(O)O)cc1)NC(=O)[C@@H](NC(=O)[C@H](CCCNC(=N)N)NC(=O)[C@H](CO)NC(=O)[C@H](CCC(=O)O)NC(=O)[C@H](C)NC(=O)[C@H](CCC(N)=O)NC(C)=O)[C@@H](C)CC)C(=O)N[C@@H](CC(C)C)C(=O)N[C@@H](CCC(N)=O)C(=O)NCC(N)=O [CD84 pY296] (Ac-QAESRI[pY]DEILQG-NH2) next?
Return: 7.04

Enquiry: Can you handle CC[C@H](C)[C@H](NC(=O)[C@H](CC(=O)O)NC(=O)[C@H](CCC(N)=O)NC(C)=O)C(=O)N[C@@H](CC(N)=O)C(=O)N[C@@H](CO)C(=O)N[C@@H](CC(C)C)C(=O)N[C@@H](Cc1ccc(OP(=O)(O)O)cc1)C(=O)N[C@@H](CC(=O)O)C(=O)N[C@H](C(=O)N[C@@H](CO)C(=O)N[C@@H](CCCNC(=N)N)C(=O)N[C@@H](CCSC)C(=O)NCC(N)=O)C(C)C [PLCG2 pY 753] (Ac-QDINSL[pY]DVSRMG-NH2) next?
Return: 4.93

Enquiry: Can you handle CC(=O)N[C@@H](CCC(N)=O)C(=O)N[C@@H](CC(=O)O)C(=O)N[C@@H](CC(=O)O)C(=O)N[C@@H](CCC(N)=O)C(=O)N[C@@H](CCC(=O)O)C(=O)N[C@H](C(=O)N[C@@H](Cc1ccc(OP(=O)(O)O)cc1)C(=O)N[C@@H](CC(=O)O)C(=O)N[C@@H](CC(=O)O)C(=O)N[C@H](C(=O)N[C@@H](C)C(=O)N[C@@H](CCC(=O)O)C(=O)NCC(N)=O)C(C)C)C(C)C [SLAP-130 pY595] (Ac-QDDQEV[pY]DDVAEG-NH2) next?
Return: 6.62

* * *

Molecular target: c-Src SH2 domain (Homo sapiens, UniProt P12931)
Construct: the SH2 domain from c‐Src kinase; His6-SUMO (N, cleaved yes)
Sequence (P12931 151-248 limits assumed): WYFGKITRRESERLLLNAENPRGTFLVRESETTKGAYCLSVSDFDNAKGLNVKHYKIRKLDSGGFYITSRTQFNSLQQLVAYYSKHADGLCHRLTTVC
Assay: competitive fluorescence polarization, c-Src SH2 domain
Conditions: Table S3, unpaired validation; competition fluorescence polarization; probe FITC-Ahx-GDG-pY-EEISPLLL-NH2 30 nM; [SH2] 123-126 nM; mean
Non-standard residues stand in square brackets, D forms with d. Residues, ends and D or L forms follow the SMILES beside them. pY = N[C@@H](Cc1ccc(OP(=O)(O)O)cc1)C(=O)O
# Kd annotations
Write the answer as a number in µM, unit excluded.

CC[C@H](C)[C@H](NC(=O)[C@H](CCC(=O)O)NC(=O)[C@H](CO)NC(=O)[C@H](Cc1ccc(OP(=O)(O)O)cc1)NC(=O)[C@H](CCC(=O)O)NC(=O)[C@@H](NC(=O)[C@@H](NC(=O)[C@H](CO)NC(=O)[C@@H]1CCCN1C(=O)[C@H](CCC(N)=O)NC(C)=O)[C@@H](C)O)[C@@H](C)O)C(=O)N[C@@H](CCCCN)C(=O)N[C@H](C(=O)NCC(N)=O)[C@@H](C)O [SIGLEC5 pY544] (Ac-QPSTTE[pY]SEIKTG-NH2); 0.282

Please look at the following compound next.
Enquiry: // fetch c-Src SH2 domain (Homo sapiens, UniProt P12931) Kd for CC(=O)N[C@@H](CCC(N)=O)C(=O)N[C@@H](CCC(=O)O)C(=O)N[C@@H](Cc1c[nH]c2ccccc12)C(=O)N[C@@H](CCCNC(=N)N)C(=O)N[C@@H](CO)C(=O)N[C@@H](CCC(N)=O)C(=O)N[C@@H](Cc1ccc(OP(=O)(O)O)cc1)C(=O)N[C@@H](CCC(=O)O)C(=O)N[C@@H](C)C(=O)N[C@@H](CC(C)C)C(=O)N[C@@H](CCCCN)C(=O)N[C@@H](CCC(=O)O)C(=O)NCC(N)=O [TRAF3IP3 pY322] (Ac-QEWRSQ[pY]EALKEG-NH2)
Return: 6.48

* * *

# Kd annotations
Molecular target: c-Src SH2 domain (Homo sapiens, UniProt P12931)
Construct: the SH2 domain from c‐Src kinase; His6-SUMO (N, cleaved yes)
Assay: competitive fluorescence polarization, c-Src SH2 domain
Settings: Table S3, unpaired validation; competition fluorescence polarization; probe FITC-Ahx-GDG-pY-EEISPLLL-NH2 30 nM; [SH2] 123-126 nM; mean
Non-standard residues stand in square brackets, D forms with d. Residues, ends and D or L forms follow the SMILES beside them. pY = N[C@@H](Cc1ccc(OP(=O)(O)O)cc1)C(=O)O
Write the answer as a number in nM, unit excluded.

Solved cases below.
CC[C@H](C)[C@H](NC(=O)[C@H](CC(=O)O)NC(=O)[C@H](CCC(N)=O)NC(C)=O)C(=O)N[C@@H](CC(N)=O)C(=O)N[C@@H](CO)C(=O)N[C@@H](CC(C)C)C(=O)N[C@@H](Cc1ccc(OP(=O)(O)O)cc1)C(=O)N[C@@H](CC(=O)O)C(=O)N[C@H](C(=O)N[C@@H](CO)C(=O)N[C@@H](CCCNC(=N)N)C(=O)N[C@@H](CCSC)C(=O)NCC(N)=O)C(C)C [PLCG2 pY 753] (Ac-QDINSL[pY]DVSRMG-NH2); 12300
CC[C@H](C)[C@H](NC(=O)[C@H](CC(=O)O)NC(=O)[C@H](CC(=O)O)NC(=O)[C@H](Cc1ccc(OP(=O)(O)O)cc1)NC(=O)[C@@H](NC(=O)[C@H](CCC(=O)O)NC(=O)CNC(=O)[C@H](CC(=O)O)NC(=O)[C@H](CC(N)=O)NC(=O)[C@H](CCC(N)=O)NC(C)=O)[C@@H](C)CC)C(=O)N[C@@H](C)C(=O)N[C@@H](CC(=O)O)C(=O)NCC(N)=O [SLAP-130 pY771] (Ac-QNDGEI[pY]DDIADG-NH2); 94

Enquiry: Reported Kd, molecule CC(=O)N[C@@H](CCC(N)=O)C(=O)N[C@@H](Cc1c[nH]cn1)C(=O)N[C@@H](CCCCN)C(=O)N[C@@H](CCC(=O)O)C(=O)N[C@@H](CC(=O)O)C(=O)N[C@H](C(=O)N[C@@H](Cc1ccc(OP(=O)(O)O)cc1)C(=O)N[C@@H](CCC(=O)O)C(=O)N[C@@H](CC(N)=O)C(=O)N[C@@H](CC(C)C)C(=O)N[C@@H](Cc1c[nH]cn1)C(=O)N[C@H](C(=O)NCC(N)=O)[C@@H](C)O)C(C)C [PTPN6 pY564] (Ac-QHKEDV[pY]ENLHTG-NH2) : ____
Return: 909

This collection of values is drawn from paper PMC12521615.
